Origin of measurements: paper PMC8113725

# assay-target: D. immitis iPGM (Dirofilaria immitis)
# experimental-details: biochemical
# assay-setup: Di iPGM Ave IC50 (M)
Bridge positions count the residues as written; N and C are the ends. Square brackets hold non-standard residues; d marks the D form. Peptide text beside a SMILES is read from it. Abu = CC[C@H](N)C(=O)O
Collected IC50 values appear next to each entry.
State the value, then name its unit.

Entry `CC(C)C[C@H](NC(=O)[C@H](Cc1ccc(O)cc1)NC(=O)[C@@H]1CSCC(=O)N[C@H](Cc2ccc(O)cc2)C(=O)N[C@@H](CC(=O)O)C(=O)N[C@@H](Cc2ccc(F)cc2)C(=O)N2CCC[C@H]2C(=O)NCC(=O)N[C@@H](CC(=O)O)C(=O)N[C@@H](Cc2ccccc2)C(=O)N1)C(=O)N[C@@H](Cc1ccc(O)cc1)C(=O)NCC(=O)N[C@H](C(=O)N[C@@H](CS)C(N)=O)[C@@H](C)O` ; IC50 = 1.41e-09 M

The molecule listed as CC[C@@H]1NC(=O)[C@@H](Cc2ccc(O)cc2)NC(=O)CSC[C@@H](C(=O)N[C@@H](Cc2ccc(O)cc2)C(=O)N[C@@H](CC(C)C)C(=O)N[C@@H](Cc2ccc(O)cc2)C(=O)NCC(=O)N[C@H](C(=O)N[C@@H](CS)C(N)=O)[C@@H](C)O)NC(=O)[C@H](Cc2ccc(O)cc2)NC(=O)[C@H](CC(=O)O)NC(=O)CNC(=O)[C@@H]2CCCN2C(=O)[C@H](Cc2ccc(O)cc2)NC1=O [Ce-2 D2Abu] ({CH2CO}-[dY][Abu]YPGDYCYLYGTC-NH2; thioether N-8) has a reported IC50 of 1.52e-09 M

Field IC50 (entry CC[C@H](C)[C@H](NC(=O)[C@H](Cc1ccc(O)cc1)NC(=O)[C@@H]1CSCC(=O)N[C@H](Cc2ccc(O)cc2)C(=O)N[C@@H](CC(=O)O)C(=O)N[C@@H](Cc2ccc(O)cc2)C(=O)N2CCC[C@H]2C(=O)NCC(=O)N[C@@H](CC(=O)O)C(=O)N[C@@H](Cc2ccc(O)cc2)C(=O)N1)C(=O)N[C@@H](Cc1ccc(O)cc1)C(N)=O [Ce-2d L10I] ) reads 5.03e-07 M

Documented IC50 of CC(C)C[C@H](NC(=O)[C@H](Cc1ccc(O)cc1)NC(=O)[C@@H]1CSCC(=O)N[C@H](Cc2ccc(O)cc2)C(=O)N[C@@H](CC(=O)O)C(=O)N[C@@H](Cc2ccc(O)cc2)C(=O)N[C@@H](C)C(=O)NCC(=O)N[C@@H](CC(=O)O)C(=O)N[C@@H](Cc2ccc(O)cc2)C(=O)N1)C(=O)N[C@@H](Cc1ccc(O)cc1)C(N)=O [Ce-2d P4A] : 7.94e-08 M

IC50 measured on COc1ccc(C[C@H](NC(=O)[C@@H]2CSCC(=O)N[C@H](Cc3ccc(O)cc3)C(=O)N[C@@H](CC(=O)O)C(=O)N[C@@H](Cc3ccc(O)cc3)C(=O)N3CCC[C@H]3C(=O)NCC(=O)N[C@@H](CC(=O)O)C(=O)N[C@@H](Cc3ccc(O)cc3)C(=O)N2)C(=O)N[C@@H](CC(C)C)C(=O)N[C@@H](Cc2ccc(O)cc2)C(N)=O)cc1 [Ce-2d Y9(4OMe)F] = 2.04e-06 M

Others:
Documented IC50 of CC(C)C[C@H](NC(=O)[C@H](Cc1ccc(O)cc1)NC(=O)[C@@H]1CSCC(=O)N[C@H](Cc2ccc(O)cc2)C(=O)N[C@@H](CC(=O)O)C(=O)N[C@@H](Cc2ccc(O)cc2)C(=O)N2CCC[C@H]2C(=O)NCC(=O)N[C@@H](CC(=O)O)C(=O)N[C@@H](Cc2ccc(O)cc2)C(=O)N1)C(=O)N[C@@H](Cc1ccc(O)cc1)C(=O)NCC(=O)NCC(=O)NO [Ce-2 T13G, C14NHOH] : 1.84e-07 M

====

# assay-target: B. malayi iPGM (Brugia malayi, UniProt Q4VWF8)
# Sequence (Q4VWF8 1-515): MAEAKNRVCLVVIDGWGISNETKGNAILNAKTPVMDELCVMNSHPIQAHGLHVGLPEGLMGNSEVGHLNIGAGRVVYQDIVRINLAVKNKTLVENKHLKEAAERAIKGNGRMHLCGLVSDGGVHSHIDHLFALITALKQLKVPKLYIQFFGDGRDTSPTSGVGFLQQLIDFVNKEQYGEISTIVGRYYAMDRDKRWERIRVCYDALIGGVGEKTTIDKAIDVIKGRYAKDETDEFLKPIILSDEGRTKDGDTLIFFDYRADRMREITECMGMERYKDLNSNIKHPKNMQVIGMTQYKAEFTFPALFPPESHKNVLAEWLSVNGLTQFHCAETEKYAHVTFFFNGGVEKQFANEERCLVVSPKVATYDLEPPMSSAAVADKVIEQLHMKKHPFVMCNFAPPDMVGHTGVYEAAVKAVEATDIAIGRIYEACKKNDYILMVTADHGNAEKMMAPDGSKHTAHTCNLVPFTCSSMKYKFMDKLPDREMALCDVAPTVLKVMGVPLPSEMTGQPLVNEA
# experimental-details: biochemical
# Assay type: binding
Bridge positions count the residues as written; N and C are the ends. Square brackets hold non-standard residues; d marks the D form. Peptide text beside a SMILES is read from it. Abu = CC[C@H](N)C(=O)O
Assign 1.0 whenever kon does not fall below 600000 M⁻¹ s⁻¹; assign 0.0 whenever it does.

[in] Reported kon reaches at least 600000 M⁻¹ s⁻¹ for CC(C)C[C@H](NC(=O)[C@H](Cc1ccc(O)cc1)NC(=O)[C@@H]1CSCC(=O)N[C@H](Cc2ccc(O)cc2)C(=O)N[C@@H](CC(=O)O)C(=O)N[C@@H](Cc2ccc(O)cc2)C(=O)N2CCC[C@H]2C(=O)NCC(=O)N[C@@H](CC(=O)O)C(=O)N[C@@H](Cc2ccc(O)cc2)C(=O)N1)C(=O)N[C@@H](Cc1ccc(O)cc1)C(=O)NCC(=O)NCC(=O)N[C@@H](CS)C(N)=O [Ce-2 T13G] ?
[out] 1.0

[in] I'd appreciate it if you could say whether CC[C@@H]1NC(=O)[C@@H](Cc2ccc(O)cc2)NC(=O)CSC[C@@H](C(=O)N[C@@H](Cc2ccc(O)cc2)C(=O)N[C@@H](CC(C)C)C(=O)N[C@@H](Cc2ccc(O)cc2)C(=O)NCC(=O)N[C@H](C(=O)N[C@@H](CS)C(N)=O)[C@@H](C)O)NC(=O)[C@H](Cc2ccc(O)cc2)NC(=O)[C@H](CC(=O)O)NC(=O)CNC(=O)[C@@H]2CCCN2C(=O)[C@H](Cc2ccc(O)cc2)NC1=O [Ce-2 D2Abu] ({CH2CO}-[dY][Abu]YPGDYCYLYGTC-NH2; thioether N-8) has kon at least equal to 600000 M⁻¹ s⁻¹.
[out] 0.0

[in] Decide: is the reported value of kon for CC(C)C[C@H](NC(=O)[C@H](Cc1ccc(O)cc1)NC(=O)[C@@H]1CSCC(=O)N[C@H](Cc2ccc(O)cc2)C(=O)N[C@@H](CC(=O)O)C(=O)N[C@@H](Cc2ccc(O)cc2)C(=O)N2CCC[C@H]2C(=O)NCC(=O)N[C@@H](CC(=O)O)C(=O)N[C@@H](Cc2ccc(O)cc2)C(=O)N1)C(=O)N[C@@H](Cc1ccc(O)cc1)C(=O)NCC(=O)N[C@@H](Cc1c[nH]cn1)C(=O)N[C@@H](CS)C(N)=O [Ce-2 T13H] equal to or greater than 600000 M⁻¹ s⁻¹?
[out] 1.0

[in] Check if kon >= 600000 M⁻¹ s⁻¹ (inclusive). Item: `CC(C)C[C@H](NC(=O)[C@H](Cc1ccc(O)cc1)NC(=O)[C@@H]1CSCC(=O)N[C@H](Cc2ccc(O)cc2)C(=O)N[C@@H](CC(=O)O)C(=O)N[C@@H](Cc2ccc(O)cc2)C(=O)N2CCC[C@H]2C(=O)NCC(=O)N[C@@H](CC(=O)O)C(=O)N[C@@H](Cc2ccc(O)cc2)C(=O)N1)C(=O)N[C@@H](Cc1ccc(O)cc1)C(=O)NCC(=O)N[C@H](C(=O)N[C@@H](CS)C(N)=O)[C@@H](C)O`
[out] 0.0

[in] Identify whether the reported kon of the following molecule is 600000 M⁻¹ s⁻¹ or greater: `CC(C)C[C@H](NC(=O)[C@H](Cc1ccc(O)cc1)NC(=O)[C@@H]1CSCC(=O)N[C@H](Cc2ccc(O)cc2)C(=O)N[C@@H](CC(=O)O)C(=O)N[C@@H](Cc2ccc(O)cc2)C(=O)N2CCC[C@H]2C(=O)NCC(=O)N[C@@H](CC(=O)O)C(=O)N[C@@H](Cc2ccc(O)cc2)C(=O)N1)C(=O)N[C@@H](Cc1ccc(O)cc1)C(=O)NCC(=O)N[C@@H](CO)C(=O)N[C@@H](CS)C(N)=O`
[out] 1.0

[in] Hi, just wondering whether `CC(C)C[C@H](NC(=O)[C@H](Cc1ccc(O)cc1)NC(=O)[C@@H]1CSCC(=O)N[C@H](Cc2ccc(O)cc2)C(=O)N[C@@H](CC(=O)O)C(=O)N[C@@H](Cc2ccc(O)cc2)C(=O)N2CCC[C@H]2C(=O)NCC(=O)N[C@@H](CC(=O)O)C(=O)N[C@@H](Cc2c[nH]cn2)C(=O)N1)C(=O)N[C@@H](Cc1ccc(O)cc1)C(=O)NCC(=O)N[C@H](C(=O)NO)[C@@H](C)O` shows kon of 600000 M⁻¹ s⁻¹ or higher.
[out] 0.0

[in] Confirm if kon reported for the molecule `CC(C)C[C@H](NC(=O)[C@H](Cc1ccc(O)cc1)NC(=O)[C@@H]1CSCC(=O)N[C@H](Cc2ccc(O)cc2)C(=O)N[C@@H](CC(=O)O)C(=O)N[C@@H](Cc2ccc(O)cc2)C(=O)N[C@@H](C(C)C)C(=O)NCC(=O)N[C@@H](CC(=O)O)C(=O)N[C@@H](Cc2ccc(O)cc2)C(=O)N1)C(=O)N[C@@H](Cc1ccc(O)cc1)C(=O)NCC(=O)N[C@H](C(=O)N[C@@H](CS)C(N)=O)[C@@H](C)O` is 600000 M⁻¹ s⁻¹ or above.
[out] 0.0
